These data points were gathered from the supplement of paper PMC8728848.

# Study System: Neu5Ac(a2-8)Neu5Ac(a2-3)Gal(b1-4)GlcNAc
# Protocol Description: glycan array binding signal (z-score within array); higher = stronger binding
# Measurement Parameters: glycan notation: IUPAC condensed, linker removed
The full list was thinned out, with the strongest signals kept by preference.
Reported glycan array binding signal (z-score) values are given for each entry in this list.
When you answer, write just the number.

Field: example entries. Status: answers known.
[
  {
    "Binder": "MpAFP NterminalRI GFP (Marinomonas primoryensis) (protein) MSDNQFPFATLGNAIGFITKLDGSVTVQSIDGQERVLKLGDPIFFGETVLTGGSGSVTIAFVDGTDVVIGGDSIVEMTDEIYNTGDNEDLVADSSSEIDALQNAILAGDDPTLIQDAPAAGNTLADQQRVDVSIERNDNSAQAGFGVDTQSSLPTYGYDTDNGNGGQATEREYSAPSLSRTLNQSPLLEHHHHHH",
    "glycan array binding signal (z-score)": -0.655
  },
  {
    "Binder": "GNA (Galanthus nivalis), P30617 (protein) MAKASLLILAAIFLGVITPSCLSDNILYSGETLSTGEFLNYGSFVFIMQEDCNLVLYDVDKPIWATNTGGLSRSCFLSMQTDGNLVVYNPSNKPIWASNTGGQNGNYVCILQKDRNVVIYGTDRWATGTHTGLVGIPASPPSEKYPTAGKIKLVTAK",
    "glycan array binding signal (z-score)": -0.178
  },
  {
    "Binder": "ArathEULS3 TAP (Arabidopsis thaliana) (protein) IDENLYFQGGSMDEKTTGWRGGHVVEGLAGELEQLRARLEHHPQGQREPGGGGSLEITSLYKKAGFMEHHHQHHRHHQRDDGEDDRQSFGVPPPHVDAPPQPHGLYQSQPHFDPYAPTPQAPAPYRSETQFEPHAPPPYRSEPYFETPAPPPSFGHVSHVGHQSPNESYPPEHHRYGGYQQPSNSLLESHGDHSGVTHVAHHSSNQPQSSSGVYHKPDENRLPDNLAGLAGRATVKVYSKAEPNYNLTIRDGKVILAPADPSDEAQHWYKDEKYSTKVKDADGHPCFALVNKATGEAMKHSVGATHPVHLIRYVPDKLDESVLWTESKDFGDGYRTIRMVNNTRLNVDAYHGDSKSGGVRDGTTIVLWDWNKGDNQLWKIFPF",
    "glycan array binding signal (z-score)": -0.433
  }
]

[Q] Given the binder LCA (Lens culinaris), P02870 (protein) MASLQTQMISFYLIFLSILLTTIFFFKVNSTETTSFSITKFSPDQKNLIFQGDGYTTKGKLTLTKAVKSTVGRALYSTPIHIWDRDTGNVANFVTSFTFVIDAPSSYNVADEFTFFIAPVDTKPQTGGGYLGVFNSKEYDKTSQTVAVEFDTFYNAAWDPSNKERHIGIDVNSIKSVNTKSWNLQNGERANVVIAFNAATNVLTVTLTYPNSLEEENVTSYTLNEVVPLKDVVPEWVRIGFSATTGAEFAAHEVHSWSFHSELGGTSSSKQAADA , what is its reported glycan array binding signal (z-score)?
[A] -0.237

[Q] Given the binder MGL (Homo sapiens), Q8IUN9 (protein) MTRTYENFQYLENKVKVQGFKNGPLPLQSLLQRLCSGPCHLLLSLGLGLLLLVIICVVGFQNSKFQRDLVTLRTDFSNFTSNTVAEIQALTSQGSSLEETIASLKAEVEGFKQERQAGVSELQEHTTQKAHLGHCPHCPSVCVPVHSEMLLRVQQLVQDLKKLTCQVATLNNNASTEGTCCPVNWVEHQDSCYWFSHSGMSWAEAEKYCQLKNAHLVVINSREEQNFVQKYLGSAYTWMGLSDPEGAWKWVDGTDYATGFQNWKPGQPDDWQGHGLGGGEDCAHFHPDGRWNDDVCQRPYHWVCEAGLGQTSQESH , what is its reported glycan array binding signal (z-score)?
[A] -0.259

[Q] Given the binder MAL-II (Maackia amurensis), P93248 (protein) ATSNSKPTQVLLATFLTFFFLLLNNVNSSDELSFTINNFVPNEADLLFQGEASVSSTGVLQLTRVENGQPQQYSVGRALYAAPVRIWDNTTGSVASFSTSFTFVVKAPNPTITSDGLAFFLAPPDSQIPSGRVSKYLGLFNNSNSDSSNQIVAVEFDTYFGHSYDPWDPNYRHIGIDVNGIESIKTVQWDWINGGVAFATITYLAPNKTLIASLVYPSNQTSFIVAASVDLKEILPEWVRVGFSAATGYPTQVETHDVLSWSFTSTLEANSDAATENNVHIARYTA , what is its reported glycan array binding signal (z-score)?
[A] -0.255

[Q] Given the binder Arath Fbox LD (Arabidopsis thaliana) (protein) EFSVWLEKASGKRCLMLSAMNLSIIWGDNPQYWQWIPIPESRFEKVAKLRDVCWFEIRGRTNTRVLSPRTRYSAYIVFKGVDKCYGFQNVAIEAAVGVVGQEPSRRLICFSEAIRRGRRNVVKPKQREDGWMEIELGEFFNDGGIMDNDEIEMSALETKQLNRKCGLIIQGIEIRPAKILAAASFLEQKLISEEDLNSAVDHHHHHH , what is its reported glycan array binding signal (z-score)?
[A] -0.254

[Q] Given the binder Gal 3C (Homo sapiens), P17931 (protein) YGAPAGPLIVPYNLPLPGGVVPRMLITILGTVKPNANRIALDFQRGNDVAFHFNPRFNENNRRVIVCNTKLDNNWGREERQSVFPFESGKPFKIQVLVEPDHFKVAVNDAHLLQYNHRVKKLNEISKLGISGDIDLTSASYTMI , what is its reported glycan array binding signal (z-score)?
[A] -0.266
